// read-out log10(Ki), gathered for UniProt P03951 from published studies
In our notation, the value equals log10 of Ki in nM.

Examples with answers:
# molecule, study.system, log10(Ki)
records = [
    ("O=C(O)c1ccc(NC(=O)[C@H](Cc2ccc(NC(=O)C3CC3)cc2)N2CCC(c3c(F)ccc(Cl)c3F)=CC2=O)cc1", "UniProt P03951", 2.74),
    ("O=C1NCCCCC[C@H](n2cnc(-c3c(-n4cc(Cl)nn4)ccc(Cl)c3F)cc2=O)c2cccc(c2)N2C(=O)CC[C@H]12", "UniProt P03951", 0.78),
    ("O=C(NC1CCc2ccccc21)[C@H](Cc1ccccc1)n1cnc(-c2cc(Cl)ccc2-n2cc(Cl)nn2)cc1=O (some centres unmarked)", "UniProt P03951", 2.92),
    ("O=C(Nc1ncn(CC2CCCC2)n1)[C@H](Cc1ccccc1)n1cnc(-c2cc(Cl)ccc2-n2cc(Cl)nn2)cc1=O", "UniProt P03951", 2.74),
    ("COC(=O)Nc1ccc2c(c1)NC(=O)CCCCCC(C(=O)N1CCCC(c3cccc(OC)c3)C1)NC2=O (racemic)", "UniProt P03951", 3.42),
    ("O=C([C@H](Cc1ccccc1)n1cnc(-c2cc(Cl)ccc2-n2cc(Cl)nn2)cc1=O)N1CCc2ccccc2C1", "UniProt P03951", 2.90),
    ("CC(=O)N1CCC(CC[C@@H](NS(=O)(=O)Cc2ccccc2)C(=O)N[C@@H](CCC2CCNCC2)C(=O)NCc2ccc(C(=N)N)cc2)CC1", "UniProt P03951", 3.15),
    ("COC(=O)Nc1ccc2c(c1)NC(=O)CC1CC1CC(c1ccc(-c3c(C(F)F)ccc(Cl)c3F)c[n+]1[O-])c1nc-2c(C)[nH]1 (racemic)", "UniProt P03951", -0.35),
    ("C[C@@H]1CCC[C@H](N2CCC(c3cc(Cl)ccc3-n3cc(Cl)nn3)=CC2=O)C(=O)NCc2ccccc2NC1=O", "UniProt P03951", 0.60),
    ("COCC(=O)Nc1ccc(C(=O)N[C@@H](Cc2ccccc2)c2ccc(-c3cc(Cl)ccc3-n3cnnn3)c[n+]2[O-])cc1", "UniProt P03951", 1.30),
]

Asked: GET /values?readout=log10(Ki)&item= C[C@@H](O)[C@H](NC(=O)[C@@H](CO)NS(=O)(=O)Cc1ccccc1)C(=O)NCc1ccc(C(=N)N)cc1
Given back: 2.40

Asked: Given the entry N=C(N)c1ccc(CNC(=O)CNC(=O)[C@@H](CCc2ccccc2)NS(=O)(=O)Cc2ccc(N)cc2)cc1 , report its measured log10(Ki).
Given back: 2.08

Asked: Give the measured log10(Ki) of O=C1CCCCC(c2ccc(-c3cc(Cl)ccc3-n3cnnn3)c[n+]2[O-])c2c[nH]c(n2)-c2cc(F)ccc2N1 (racemic) .
Given back: -0.33

Asked: Requested field: log10(Ki). Item: COC(=O)N1CCC(CC[C@@H](NS(=O)(=O)Cc2ccccc2)C(=O)N[C@@H](CCC2CCNCC2)C(=O)NCc2ccc(C(=N)N)cc2)CC1
Given back: 2.86

Asked: Entry Cc1c(C(=O)N[C@H]2CCC[C@@H](C)C(=O)Nc3cc(Nc4ccncn4)ccc3-c3ccnc2c3)nnn1-c1cccc(Cl)c1F has what log10(Ki)?
Given back: 1.24

Asked: // query log10(Ki) value for entry O=C(Nc1ccncc1)[C@H](Cc1ccccc1)n1cnc(-c2cc(Cl)ccc2-n2cc(Cl)nn2)cc1=O
Given back: 1.64

Asked: Fill in the blank: the reported log10(Ki) of COC(=O)Nc1ccc2c(c1)NC(=O)[C@H](C)CCC[C@H](c1ccc(-c3c(F)cccc3F)c[n+]1[O-])c1nc-2c(C)[nH]1 (single isomer, unassigned) is ____.
Given back: -1.00

Asked: Request the reported log10(Ki) associated with COC(=O)Nc1ccc2c(c1)NC(=O)CCCCC(NC(=O)/C=C/c1cc(Cl)ccc1-n1cnnn1)c1cc-2nc(C)n1 (centres unmarked)
Given back: 1.36

Asked: Value lookup for log10(Ki); key = COC(=O)Nc1ccc2c(c1)CC(C(=O)N(C)C)CCCC[C@H](NC(=O)/C=C/c1cc(Cl)ccc1-n1cnnn1)c1nc-2c[nH]1 (some centres unmarked)
Given back: 2.98

Asked: Which log10(Ki) reading was recorded for the molecule O=C(NCCN1CCCC1)[C@H](Cc1ccccc1)n1cnc(-c2cc(Cl)ccc2-n2cc(Cl)nn2)cc1=O ?
Given back: 3.88

Asked: Could you tell me which log10(Ki) is on file for CC1CCCC(c2ccc(-c3c(-n4cnnn4)ccc(Cl)c3F)c[n+]2[O-])c2cccc(c2)-c2cc(F)ccc2NC1=O (centres unmarked) ?
Given back: -0.39

Asked: What value of log10(Ki) has been reported for the following molecule? COC(=O)Nc1ccc(CNC(=O)C(Cc2ccccc2)n2ccc(-c3cc(Cl)ccc3[N+](=O)[O-])cc2=O)cc1 (centres unmarked)
Given back: 2.53

Asked: Please report the recorded log10(Ki) for NC(=O)c1ccc(NC(=O)[C@H](Cc2ccccc2)n2cnc(-c3cc(Cl)ccc3-n3cc(Cl)nn3)cc2=O)cc1 .
Given back: 1.52
